- Tested on: HDAC class I (p21 reporter gene)
- procedureDetails: HDAC subtype reporter gene assay, p21-promoter luciferase in HeLa cells
- Format: cell-based
- conditionParameters: Homo sapiens, M-HeLa, read-out: % of SAHA Response for HDAC class I at 10 μM (p21 reporter gene), 24 hours
- Method: Measurement of inhibition of HDAC subtypes activity in cells by reporter gene assay: HDAC subtype selectivity inhibition assay of tested compounds was carried out by several reporter gene assays experiments. […] To normalize the data from the luciferase assays, GFP activity from transfected cells was measured in a microtiter-plate reading fluorimeter capable of excitation at a wavelength at 485 nm and detection of emitted light at 527 nm.
Criterion: Emax at 10 µM strictly less than 20%. Met: met. Not met: not met.

compound: Nc1cc(F)ccc1NC(=O)CCCCNC(=O)c1cccc(/C=C2\C(=O)Nc3ccc(F)cc32)c1
testedSystem: HDAC class I (p21 reporter gene)
classAssignment: met
//
compound: Nc1ccccc1NC(=O)CCCCCCCNC(=O)c1cccc(/C=C2\C(=O)Nc3ccc(F)cc32)c1
testedSystem: HDAC class I (p21 reporter gene)
classAssignment: not met
//
compound: O=C(CCCCCCC(=O)Nc1ccccc1)NO [SAHA, suberoylanilide hydroxamic acid, reference compound]
testedSystem: HDAC class I (p21 reporter gene)
classAssignment: not met
//
compound: Cc1[nH]c(/C=N/N=C2\C(=O)Nc3ccc(F)cc32)c(C)c1C(=O)NCCCCCC(=O)NO
testedSystem: HDAC class I (p21 reporter gene)
classAssignment: not met
//
compound: Cc1[nH]c(/C=N/N=C2\C(=O)Nc3ccc(F)cc32)c(C)c1C(=O)NCCCCCCCC(=O)Nc1ccc(F)cc1N
testedSystem: HDAC class I (p21 reporter gene)
classAssignment: met
//
compound: O=C(CCCCCNC(=O)c1ccc(/C=N/N=C2\C(=O)Nc3ccc(F)cc32)cc1)NO
testedSystem: HDAC class I (p21 reporter gene)
classAssignment: not met
//
compound: Nc1cc(F)ccc1NC(=O)CCCCCNC(=O)c1ccc(/C=C2\C(=O)Nc3ccc(F)cc32)cc1
testedSystem: HDAC class I (p21 reporter gene)
classAssignment: met

###

- System: total HDAC enzyme (HeLa extract)
- procedureDetails: In vitro inhibition of total HDAC enzyme activity (HDAC Fluorimetric Assay/Drug Discovery Kit, BIOMOL)
- Format: biochemical, human
Outcome label depends on % of Inhibition on Total HDAC Enzyme at 30 μM relative to 30%: at/above gives label 1, below gives label 0.

givenSmiles: O=C(CCCCCNC(=O)c1ccc(/C=C2\C(=O)Nc3ccc(F)cc32)cc1)NO
classAssignment: label 1

givenSmiles: Cc1[nH]c(/C=N/N=C2\C(=O)Nc3ccc(F)cc32)c(C)c1C(=O)NCCCCCCCC(=O)Nc1ccc(F)cc1N
classAssignment: label 0

givenSmiles: Cc1[nH]c(/C=N/N=C2\C(=O)Nc3ccc(F)cc32)c(C)c1C(=O)NCCCCCCCC(=O)Nc1ccccc1N
classAssignment: label 0

givenSmiles: Cc1[nH]c(/C=N/N=C2\C(=O)Nc3ccc(F)cc32)c(C)c1C(=O)NCCCCCC(=O)NO
classAssignment: label 1

givenSmiles: Nc1ccccc1NC(=O)CCCCCCCNC(=O)c1cccc(/C=C2\C(=O)Nc3ccc(F)cc32)c1
classAssignment: label 1

givenSmiles: Nc1ccccc1NC(=O)CCCCNC(=O)c1cccc(/C=C2\C(=O)Nc3ccc(F)cc32)c1
classAssignment: label 0

givenSmiles: Nc1ccccc1NC(=O)CCCCCNC(=O)c1ccc(/C=C2\C(=O)Nc3ccc(F)cc32)cc1
classAssignment: label 1
